# System: CASOB (Sicklepod)
# Assay comment: Postemergence herbicidal evaluation
# Type: in vivo, Cassia obtusifolia
# Experimental conditions: postemergence, rate 0.0313 kg/ha
Entries annotated with measured CASOB herbicidal rating
Answer field: number only, no words.

Below, 3 compounds whose answers are already recorded.
C=CCN1C(=O)C(CC(=O)NC)SC1=Nc1cc(-n2c(=O)cc(C(F)(F)F)n(C)c2=O)c(F)cc1Cl (stereo not shown) [Compound 84]    0.0
CCOC(=O)CN1C(=O)C(CC(=O)NOC)SC1=Nc1cc(-n2c(=O)cc(C(F)(F)F)n(C)c2=O)c(F)cc1Cl (stereo not shown) [Compound 83]    9.0
CC(C)OC(=O)CC1SC(=Nc2cc(-n3c(=O)cc(C(F)(F)F)n(C)c3=O)c(F)cc2Cl)N(C)C1=O (stereo not shown) [Compound 89]    6.0

Consider the record given below.
The compound listed as CCOC(=O)/C=C1/S/C(=N/c2cc(-n3c(=O)cc(C(F)(F)F)n(C)c3=O)c(F)cc2Cl)N(CC(=O)OCC)C1=O [Compound 14] shows CASOB herbicidal rating equal to 2.0

* * *

# System: CYPIR (Rice Flatsedge)
# Assay comment: Preemergence weed control under flooded paddy conditions
# Format: in vivo, Cyperus iria
# Experimental conditions: 0.0313 kg/ha, rated 3-4 weeks after treatment
Entries annotated with measured Herbicidal rating CYPIR

Below, 2 compounds whose answers are already recorded.
CCOC(=O)CN1C(=O)C(CCO)S/C1=N/c1cc(-n2c(=O)cc(C(F)(F)F)n(C)c2=O)c(F)cc1Cl (stereo not drawn)    0.0
Cn1c(C(F)(F)F)cc(=O)n(-c2cc(N=C3SCC(=O)N3CC(=O)OC(C)(C)C)c(Cl)cc2F)c1=O    0.0

Consider the record given below.
The compound listed as CCOC(=O)CN1C(=O)CS(=O)(=O)C1=Nc1cc(-n2c(=O)cc(C(F)(F)F)n(C)c2=O)c(F)cc1Cl shows Herbicidal rating CYPIR equal to 0.0

* * *

# System: ECHCG (Barnyardgrass)
# Assay comment: Postemergence herbicidal evaluation
# Type: in vivo, Echinochloa crus-galli
# Experimental conditions: postemergence, rate 0.0156 kg/ha
Entries annotated with measured Herbicidal rating ECHCG
Answer field: number only, no words.

Below, 6 molecules whose answers are already recorded.
CN1C(=O)C(CC(=O)NS(=O)(=O)c2ccccc2)SC1=Nc1cc(-n2c(=O)cc(C(F)(F)F)n(C)c2=O)c(F)cc1Cl (stereo not shown)    0.0
Cn1c(C(F)(F)F)cc(=O)n(-c2cc(N=C3SCC(=O)N3Cc3ccncc3)c(Cl)cc2F)c1=O    1.0
Cn1c(C(F)(F)F)cc(=O)n(-c2cc(N=C3SCC(=O)N3Cc3ccccn3)c(Cl)cc2F)c1=O    2.0
Cn1c(C(F)(F)F)cc(=O)n(-c2cc(N=C3SCC(=O)N3Cc3ccc(F)cc3)c(Cl)cc2F)c1=O    3.0
CCOC(=O)CN1C(=O)C(OC)SC1=Nc1cc(-n2c(=O)cc(C(F)(F)F)n(C)c2=O)c(F)cc1Cl (stereo not shown)    3.0
Cn1c(C(F)(F)F)cc(=O)n(-c2cc(N=C3SCC(=O)N3Cc3ccc(C(F)(F)F)cc3)c(Cl)cc2F)c1=O    0.0

The molecule listed as Cn1c(C(F)(F)F)cc(=O)n(-c2cc(N=C3SCC(=O)N3Cc3cccnc3)c(Cl)cc2F)c1=O shows Herbicidal rating ECHCG equal to 1.0

* * *

Entries annotated with measured Preemergence herbicidal rating IPOHE
# Tested on: IPOHE (Morningglory, Ivyleaf)
# Assay comment: Preemergence herbicidal evaluation
# Type: in vivo, Ipomoea hederacea
# Experimental conditions: 0.1250 kg/ha, rated 4-5 weeks after treatment
Answer field: number only, no words.

CCOC(=O)CN1C(=O)C(CC(=O)O)SC1=Nc1cc(N2C(=O)CC(C(F)(F)F)CC2=O)c(F)cc1Cl (stereo not shown) [Compound 170]    7.0
Cn1c(C(F)(F)F)cc(=O)n(-c2cc(N=C3SCC(=O)N3C3CCCC3)c(Cl)cc2F)c1=O [Compound 166]    2.0
Cn1c(C(F)(F)F)cc(=O)n(-c2cc(N=C3SCC(=O)N3C3CCC3)c(Cl)cc2F)c1=O [Compound 168]    3.0

Consider the record given below.
The compound listed as COCCCN1C(=O)CSC1=Nc1cc(-n2c(=O)cc(C(F)(F)F)n(C)c2=O)c(F)cc1Cl [Compound 172] shows Preemergence herbicidal rating IPOHE equal to 9.0

* * *

# Tested on: SAGPY (Arrowhead (Pygmaea))
# Assay comment: Postemergence weed control under flooded paddy conditions
# Type: in vivo, Sagittaria pygmaea
# Experimental conditions: Rate 0.1250 kg/ha, postemergence weeds, rated 3 to 4 weeks after treatment
Measurement kind: Herbicidal rating SAGPY
Answer field: number only, no words.

Below, 6 compounds whose answers are already recorded.
CCOC(=O)[C@H](Cc1ccccc1)N1C(=O)CSC1=Nc1cc(-n2c(=O)cc(C(F)(F)F)n(C)c2=O)c(F)cc1Cl [Compound 80]    0.0
C=CCN1C(=O)C(CC(=O)NS(=O)(=O)c2ccccc2)SC1=Nc1cc(-n2c(=O)cc(C(F)(F)F)n(C)c2=O)c(F)cc1Cl (stereo not shown) [Compound 101]    0.0
C=CCOC(=O)CC1SC(=Nc2cc(-n3c(=O)cc(C(F)(F)F)n(C)c3=O)c(F)cc2Cl)N(CC=C)C1=O (stereo not shown) [Compound 65]    5.0
CCOC(=O)CN1C(=O)C(CC(=O)Nc2ccccc2)SC1=Nc1cc(-n2c(=O)cc(C(F)(F)F)n(C)c2=O)c(F)cc1Cl (stereo not shown) [Compound 68]    0.0
COC(=O)C(Cc1ccc(Cl)cc1)N1C(=O)CSC1=Nc1cc(-n2c(=O)cc(C(F)(F)F)n(C)c2=O)c(F)cc1Cl (racemic) [Compound 77]    0.0
CN1C(=O)C(CC(=O)OCCF)SC1=Nc1cc(-n2c(=O)cc(C(F)(F)F)n(C)c2=O)c(F)cc1Cl (stereo not shown) [Compound 93]    3.0

The compound listed as CC(C)C[C@@H](C(=O)O)N1C(=O)CSC1=Nc1cc(-n2c(=O)cc(C(F)(F)F)n(C)c2=O)c(F)cc1Cl [Compound 71] shows Herbicidal rating SAGPY equal to 0.0

* * *

# System: MOOVA (Monochoria)
# Assay comment: Preemergence weed control under flooded paddy conditions
# Format: in vivo, Monochoria vaginalis
# Experimental conditions: 0.1250 kg/ha, rated 3-4 weeks after treatment
Measurement kind: herbicidal effect rating, MOOVA
Answer field: number only, no words.

CCOC(=O)CN1C(=O)C(OC)SC1=Nc1cc(-n2c(=O)cc(C(F)(F)F)n(C)c2=O)c(F)cc1Cl (stereo not drawn) [Compound 160]    6.0
Cn1c(C(F)(F)F)cc(=O)n(-c2cc(N=C3SCC(=O)N3C3CCCC3)c(Cl)cc2F)c1=O [Compound 166]    9.0
CCN1C(=O)CSC1=Nc1cc(-n2c(=O)cc(C(F)(F)F)n(C)c2=O)c(F)cc1Cl [Compound 159]    6.0
Cn1c(C(F)(F)F)cc(=O)n(-c2cc(N=C3SCC(=O)N3Cc3ccc(F)cc3)c(Cl)cc2F)c1=O [Compound 151]    9.0
CC(C)S(=O)(=O)NC(=O)CC1SC(=Nc2cc(-n3c(=O)cc(C(F)(F)F)n(C)c3=O)c(F)cc2Cl)N(C)C1=O (stereo not drawn) [Compound 119]    9.0

Consider the record given below.
The compound listed as COc1cc(CN2C(=O)CSC2=Nc2cc(-n3c(=O)cc(C(F)(F)F)n(C)c3=O)c(F)cc2Cl)cc(OC)c1OC [Compound 140] shows herbicidal effect rating, MOOVA equal to 9.0

* * *

# Tested on: CASOB (Sicklepod)
# Assay comment: Preemergence herbicidal evaluation
# Type: in vivo, Cassia obtusifolia
# Experimental conditions: preemergence, 0.5000 kg/ha, rated 4-5 weeks after treatment, 0-9 scale
Measurement kind: CASOB rating
Answer field: number only, no words.

C=CCN1C(=O)C(CC(=O)NS(=O)(=O)CC)SC1=Nc1cc(-n2c(=O)cc(C(F)(F)F)n(C)c2=O)c(F)cc1Cl (centres unmarked)    0.0

The compound listed as CC(C)OC(=O)CC1SC(=Nc2cc(-n3c(=O)cc(C(F)(F)F)n(C)c3=O)c(F)cc2Cl)N(C)C1=O (centres unmarked) shows CASOB rating equal to 9.0

* * *

# System: CASOB (Sicklepod)
# Assay comment: Preemergence herbicidal evaluation
# Format: in vivo, Cassia obtusifolia
# Experimental conditions: rate 0.0625 kg/ha; rated 4-5 weeks after treatment
Entries annotated with measured Preemergence herbicidal rating CASOB
Answer field: number only, no words.

Below, 5 compounds whose answers are already recorded.
CC(C)COC(=O)CN1C(=O)CSC1=Nc1cc(-n2c(=O)cc(C(F)(F)F)n(C)c2=O)c(F)cc1Cl    0.0
C=CCN1C(=O)C(CC(=O)OC)SC1=Nc1cc(-n2c(=O)cc(C(F)(F)F)n(C)c2=O)c(F)cc1Cl (stereo not shown)    1.0
C#CCOC(=O)CC1SC(=Nc2cc(-n3c(=O)cc(C(F)(F)F)n(C)c3=O)c(F)cc2Cl)N(CC=C)C1=O (stereo not shown)    0.0
COC(=O)C(C)OC(=O)CN1C(=O)CSC1=Nc1cc(-n2c(=O)cc(C(F)(F)F)n(C)c2=O)c(F)cc1Cl (stereo not shown)    0.0
CCOC(=O)CN1C(=O)C(CC(=O)OC)S/C1=N/c1cc(-n2c(=O)cc(C(F)(F)F)n(C)c2=O)c(F)cc1Cl (stereo not shown)    0.0

The compound listed as Cn1c(C(F)(F)F)cc(=O)n(-c2cc(N=C3SCC(=O)N3Cc3ccccc3)c(Cl)cc2F)c1=O shows Preemergence herbicidal rating CASOB equal to 0.0

The compound listed as CN1C(=O)C(CC(=O)O)SC1=Nc1cc(-n2c(=O)cc(C(F)(F)F)n(C)c2=O)c(F)cc1Cl (stereo not shown) shows Preemergence herbicidal rating CASOB equal to 2.0
